Items are presented alongside their recorded total protein half-life in vivo.
experiment: total protein half-life in vivo (active degradation + dilution); higher = more stable protein; settings: wild type E. coli NCM3722; growth: P-lim chemostat; doubling time 6 h
Provide the reading as a plain figure in h.

MSKSDVFHLGLTKNDLQGATLAIVPGDPDRVEKIAALMDKPVKLASHREFTTWRAELDGKPVIVCSTGIGGPSTSIAVEELAQLGIRTFLRIGTTGAIQPHINVGDVLVTTASVRLDGASLHFAPLEFPAVADFECTTALVEAAKSIGATTHVGVTASSDTFYPGQERYDTYSGRVVRHFKGSMEEWQAMGVMNYEMESATLLTMCASQGLRAGMVAGVIVNRTQQEIPNAETMKQTESHAVKIVVEAARRLL | 5.99

Read the next record carefully.
Query: I have this sequence here, MKPGCTLFFLLCSALTVTTEAHAQTPDTATTAPYLLAGAPTFDLSISQFREDFNSQNPSLPLNEFRAIDSSPDKANLTRAASKINENLYASTALERGTLKIKSIQMTWLPIQGPEQKAAKAKAQEYMAAVIRTLTPLMTKTQSQKKLQSLLTAGKNKRYYTETEGALRYVVADNGEKGLTFAVEPIKLALSESLEGLNK , and I need its recorded total protein half-life in vivo.
Response: 3.75
